- System: Nuclear receptor subfamily 1 group I member 3 (Homo sapiens) (UniProt Q14994)
- Sequence (Q14994 whole entry, looked up): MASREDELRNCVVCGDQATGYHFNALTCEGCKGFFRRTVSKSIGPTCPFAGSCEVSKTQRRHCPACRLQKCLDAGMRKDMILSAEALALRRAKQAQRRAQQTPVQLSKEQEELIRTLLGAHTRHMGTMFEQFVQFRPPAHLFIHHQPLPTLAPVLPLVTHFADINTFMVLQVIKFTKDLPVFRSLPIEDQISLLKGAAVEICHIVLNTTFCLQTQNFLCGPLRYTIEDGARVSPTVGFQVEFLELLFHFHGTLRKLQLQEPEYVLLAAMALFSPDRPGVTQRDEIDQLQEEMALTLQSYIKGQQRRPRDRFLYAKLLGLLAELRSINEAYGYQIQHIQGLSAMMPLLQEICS
- Protocol text: qHTS assay to identify small molecule antagonists of the constitutive androstane receptor (CAR) signaling pathway (AID 1224838);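 further: HepG2 cells stably expressing hCAR with CYP2B6 luciferase reporter stimulated by CITCO; nearly all actives have a fitted effect of over 40% in size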
- Experimental conditions: HepG2-CYP2B6-hCAR luciferase, CITCO-stimulated, 24 h; series mostly up to 92.4 µM
Results filed as inconclusive are left out. Activity calls are given as the source filed them. The call rests on the fitted dose curve; in most records, active means well fitted inhibition curve with a large enough effect in the repeat runs; inconclusive means weak or mixed curves, or effect the other way; inactive means no such curve, though single readings can be large or run the other way.
Outcome (select one): active, inactive

Past entries and their recorded results:
>>> print(df.to_string())
                               query_smiles  assigned_category
0  C[n+]1cc2c3c(ccc2c2ccc4cc5c(cc4c21)OCO5)OCO3             active
1           CCCCCCCC/C=C/CCCCCCCC1=NCCN1CCO             active

## Input Which outcome did this test record for the compound Cc1cccc(S(=O)(=O)O)c1C ?
## Output inactive

* * *

- Protocol text: qHTS assay to identify small molecule antagonists of the retinoic acid receptor (RAR) signaling pathway (AID 1159552; further: nearly all actives have a fitted effect of over 50% in size)
- Experimental conditions: C3RL4 RARE luciferase reporter, retinol-stimulated, 6 h; series mostly up to 92.4 µM
Results filed as inconclusive are left out. Activity calls are given as the source filed them. The call rests on the fitted dose curve; in most records, active means well fitted inhibition curve with a large enough effect in the repeat runs; inconclusive means weak or mixed curves, or effect the other way; inactive means no such curve, though single readings can be large or run the other way.
A correct response names exactly one class from 1 (yes) = active, 0 (no) = inactive

Check out these entries, answers already filled in.
                                   compound  assigned_category
0  CCN(CC)CCNC(=O)c1c(C)[nH]c(/C=C2\C(=O)Nc3ccc(F)cc32)c1C            1 (yes)
1                              CCC(N)(CO)CO             0 (no)
2                 CCCCCCCCOC(=O)c1ccc(O)cc1             0 (no)
3  CCCN(CCC)c1c([N+](=O)[O-])cc(C(F)(F)F)c(N)c1[N+](=O)[O-]            1 (yes)
4                    C[n+]1ccn(Cc2ccccc2)c1             0 (no)

Here is another compound to look at.
## Input Recorded test call requested for CC1=C(C(=O)OC(C)C)C(c2cccc([N+](=O)[O-])c2)C(C(=O)OC2CN(C(c3ccccc3)c3ccccc3)C2)=C(N)N1 (stereo not given)
## Output 1 (yes)

* * *

- Protocol text: qHTS assay to identify small molecule agonists of the TGF-beta/Smad signaling pathway - cell viability counter screen (AID 1346829); further: nearly all actives have a fitted effect of over 45% in size
- Experimental conditions: SBE-bla HEK293T viability, CellTiter-Glo luminescence, 5 h; series mostly up to 76.8 µM
Records with an inconclusive call do not appear. Active and inactive are the calls of the source. The call rests on the fitted dose curve; in most records, active means well fitted cell-killing curve with a large enough effect in the repeat runs; inconclusive means weak or mixed curves, or effect the other way; inactive means flat fitted curve, though single readings scatter.
Form entry, call: pick from active, inactive

>>> print(df.to_string())
                                   molecule  assigned_category
0  CCc1cc(Cc2cc(CC)cc(C(C)(C)C)c2O)c(O)c(C(C)(C)C)c1             active
1  O=C(O)c1cc(O)c2c(c1)C(=O)c1cccc(O)c1C2=O           inactive

## Input Status in this test for Oc1ccc2cc(SSc3ccc4cc(O)ccc4c3)ccc2c1 ?
## Output inactive

## Input Test call for this molecule, please: COC(=O)c1cc(Cl)ccc1OC
## Output inactive

## Input Status in this test for Cc1[nH]nc2c1N=C(c1ccccc1Cl)c1cc([N+](=O)[O-])ccc1N2 ?
## Output active

## Input Record request — test call for Oc1cc2ccccc2c2ccccc12
## Output active

## Input Called result for C[n+]1cc2c3c(ccc2c2ccc4cc5c(cc4c21)OCO5)OCO3
## Output active

## Input Given NNc1nc(-c2ccccc2)cs1 , state the outcome it received in this test.
## Output inactive

// data source = PubChem BioAssay (Tox21)
